Test: Plasma protein binding
Assay type: in vitro ADME
Conditions: 4-h incubation at 37 °C, read-out: PPB (converted)
// fraction unbound at 4 h, 10 µM lookup, one value per entry
readout name: fraction unbound at 4 h, 10 µM

CN(CCCNC(=O)c1ccc(Cl)cc1)Cc1ccccc1 [compound 7i] | > 0.05
O=C(NCCCNCc1ccccc1)c1ccc(Cl)cc1 [compound 7i-deMe] | 0.19

###

Target: OATP1B1 (Homo sapiens)
Sequence (Q9Y6L6 whole entry): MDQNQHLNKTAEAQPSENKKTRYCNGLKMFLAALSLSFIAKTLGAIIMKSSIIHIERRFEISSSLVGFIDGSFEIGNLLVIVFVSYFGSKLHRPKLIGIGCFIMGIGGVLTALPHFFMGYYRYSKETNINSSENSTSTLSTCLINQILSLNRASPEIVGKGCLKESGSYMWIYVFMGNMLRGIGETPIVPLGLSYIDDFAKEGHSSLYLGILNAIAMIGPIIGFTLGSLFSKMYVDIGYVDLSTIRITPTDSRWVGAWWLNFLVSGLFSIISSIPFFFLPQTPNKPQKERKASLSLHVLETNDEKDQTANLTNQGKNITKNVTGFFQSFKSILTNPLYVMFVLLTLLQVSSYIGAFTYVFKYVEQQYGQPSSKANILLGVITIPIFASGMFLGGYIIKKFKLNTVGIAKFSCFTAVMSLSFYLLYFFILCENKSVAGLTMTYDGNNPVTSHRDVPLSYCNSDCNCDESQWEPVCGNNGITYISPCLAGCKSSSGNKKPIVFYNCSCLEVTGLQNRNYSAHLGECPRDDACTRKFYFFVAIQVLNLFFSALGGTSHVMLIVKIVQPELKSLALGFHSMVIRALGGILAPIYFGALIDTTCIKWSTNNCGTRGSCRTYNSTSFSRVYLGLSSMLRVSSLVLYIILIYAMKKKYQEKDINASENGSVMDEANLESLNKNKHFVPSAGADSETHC
Assay: Drug transporter inhibition (SLC family)
Format: in vitro ADME
Settings: transporter-overexpressing cell lines, read-out: Drug transporters inhibition OATP1B1
readout name: inhibition at 10 µM (%)

O=C(NCCCNCc1ccccc1)c1ccc(Cl)cc1 | 8.6
CN(CCCNC(=O)c1ccc(Cl)cc1)Cc1ccccc1 | 12
